- System: A/H1N1 (A/PR/8/34)
- assay_summary: microbe, parasite or virus in culture
- Format: cell-based, influenza A virus
- test_conditions: read-out: Antiviral activity (EC50) A/PR/8/34
The following molecules are listed with their measured EC50 values.
Returns: string containing the numeric result and its unit.

Below, 2 molecules whose answers are already recorded.
>>> df
                                   molecule       target_entity  reported_endpoint  recorded_value
0  CCC(CC)O[C@@H]1C=C(C(=O)O)C[C@H](N)[C@H]1NC(C)=O [Oseltamivir carboxylate]  A/H1N1 (A/PR/8/34)               EC50           21 µM
1  CC(=O)N[C@H]1[C@H]([C@H](O)[C@H](O)CO)OC(C(=O)O)=C[C@@H]1N=C(N)N [Zanamivir]  A/H1N1 (A/PR/8/34)               EC50            6 µM

--- query ---
Recorded EC50 (molecule NC(=O)c1ncn([C@@H]2O[C@H](CO)[C@@H](O)[C@H]2O)n1 [Ribavirin] ): 8.7 µM
